Sourced from patent US20260242478A1

Consider the following binders; for each one, report its Phage binding ELISA, Anti-PSMA Fab (SEQ ID NOs: 19, 20) signal.
Molecular target: T1, Anti-PSMA Fab (SEQ ID NOs: 19, 20) (biotinylated (site not stated))
T1 construct: also called 006 PSMA Fab
Experiment: phage ELISA; biotinylated PSMA Fab on neutravidin plate, clonal phage supernatant, anti-M13 HRP detection;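 further: wells preincubated with PSMA antigen in blocking buffer or with blocking buffer only before clonal phage were added for a short incubation, then bound phage detected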
Where no end group is shown, it is not given here.
Numbers only.

Binder: VEKWCIPTWMCELS (Clonal phage of the Peptide-180 library, tested as crude supernatant; not shown: fused to the pIII filament protein of the bacteriophage) [Phage-1923]
Recorded number: 1.99

Binder: VSIWCRPAWMCESG (Clonal phage of the Peptide-180 library, tested as crude supernatant; not shown: fused to the pIII filament protein of the bacteriophage) [Phage-1934]
Recorded number: 1.97

Answer for every listed entry: what is its Phage binding ELISA, Anti-PSMA Fab (SEQ ID NOs: 19, 20) signal? The entries follow.
1. LVNWCIPMWMCEGF (Clonal phage of the Peptide-180 library, tested as crude supernatant; not shown: fused to the pIII filament protein of the bacteriophage) [Phage-1922]
2. WDRLCTPAWMCTGF (Clonal phage of the Peptide-180 library, tested as crude supernatant; not shown: fused to the pIII filament protein of the bacteriophage) [Phage-1931]
3. VVQWCIPAWMCAAQ (cysteine pairing not given here; also: displayed as fusion to phage pIII, Clonal phage of the Peptide-180 library, tested as crude supernatant; not shown: fused to the pIII filament protein of the bacteriophage) [Phage-1933]
4. WENWCTPAWMCSHM (Clonal phage of the Peptide-180 library, tested as crude supernatant; not shown: fused to the pIII filament protein of the bacteriophage) [Phage-1927]

*A*
1.99
1.97
1.97
1.98
